Taken from PubChem BioAssay (NCATS).

- experimental-system: Cytochrome P450 1A2 (Homo sapiens) (UniProt P05177)
- Sequence (P05177 whole entry, looked up): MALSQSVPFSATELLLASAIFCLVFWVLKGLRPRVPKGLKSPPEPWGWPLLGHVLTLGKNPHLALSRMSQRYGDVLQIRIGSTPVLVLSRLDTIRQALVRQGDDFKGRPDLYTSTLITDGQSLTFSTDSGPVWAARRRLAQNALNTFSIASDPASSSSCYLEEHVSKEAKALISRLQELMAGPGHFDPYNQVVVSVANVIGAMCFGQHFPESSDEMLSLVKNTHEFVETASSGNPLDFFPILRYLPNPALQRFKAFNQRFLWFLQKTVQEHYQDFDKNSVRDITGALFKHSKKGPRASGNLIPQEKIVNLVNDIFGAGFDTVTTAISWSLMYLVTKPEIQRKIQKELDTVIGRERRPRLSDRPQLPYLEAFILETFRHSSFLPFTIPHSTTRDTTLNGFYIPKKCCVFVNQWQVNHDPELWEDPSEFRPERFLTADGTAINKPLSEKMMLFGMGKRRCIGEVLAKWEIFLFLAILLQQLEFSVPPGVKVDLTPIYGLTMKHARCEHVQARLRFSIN
- assay-notes: p450-cyp1a2 (AID 410)
- cond: recombinant CYP1A2, luciferin-ME demethylation, luminescence; series mostly up to 57 µM
Inconclusive results are not listed. Activity calls are given as the source filed them. Calls come from the whole dose curve.
Permitted responses: active, inactive

Write down the call the test reported for this compound. Item: CC(Oc1ccc(O)cc1)(P(=O)(O)O)P(=O)(O)O
inactive

Call for entry CN(N=O)C(=O)N[C@H]1C(O)OC(CO)[C@@H](O)[C@H]1O (some centres undefined) :
inactive

Query: recorded result category for CN(C)CC[C@H](c1ccc(Cl)cc1)c1ccccn1 in this test
inactive

Test call for this compound, please: CCOC(=O)C1=C(C)NC(=S)NC1c1cccc(O)c1 (centres undefined)
active
